Experiment: Apparent permeability of compound by PAMPA assay
Format: ADME

>  <Compound>
CC(C(=O)O)c1ccc(-c2ccccc2)c(F)c1 (configuration not stated)

>  <Papp>
5.24 ×10⁻⁶ cm/s

$$$$
>  <Compound>
[2H]c1c([2H])c([2H])c(-c2c([2H])c([2H])c(C(C)C(=O)O)c([2H])c2F)c([2H])c1[2H] (configuration not stated)

>  <Papp>
5.32 ×10⁻⁶ cm/s

$$$$

====

Test: Half life in Sprague Dawley rat at 1 mg/kg, iv measured for 8 hrs by HPLC analysis
Type: ADME, organism-based
Conditions: in vivo
Quick reference for half-life among some molecules
Result Type: half-life (min)

>  <Molecule>
[2H]c1c([2H])c([2H])c(-c2c([2H])c([2H])c(C(C)C(=O)O)c([2H])c2F)c([2H])c1[2H] (configuration not stated)

>  <Display Unit>
min

>  <Recorded Value>
33

$$$$
>  <Molecule>
CC(C(=O)O)c1ccc(-c2ccccc2)c(F)c1 (configuration not stated)

>  <Display Unit>
min

>  <Recorded Value>
34.2

$$$$

====

Test: Lipophilicity, log D of compound in n-octanol/PBS at pH 7.4 at 10 mg measured for 48 hrs by HPLC analysis
Format: physicochemical

>  <Molecule>
[2H]c1c([2H])c([2H])c(-c2c([2H])c([2H])c(C(C)C(=O)O)c([2H])c2F)c([2H])c1[2H] (configuration not stated)

>  <logD at 48 h>
0.87

$$$$
>  <Molecule>
CC(C(=O)O)c1ccc(-c2ccccc2)c(F)c1 (configuration not stated)

>  <logD at 48 h>
0.9

$$$$

====

Quick reference for Vd among some compounds
Assay: Volume of distribution at steady state in Sprague Dawley rat at 1 mg/kg, iv measured for 8 hrs by HPLC analysis
Assay type: ADME, organism-based
Conditions: in vivo, read-out: Vdss

>  <Compound>
CC(C(=O)O)c1ccc(-c2ccccc2)c(F)c1 (configuration not stated)

>  <Vd>
0.0204 L/kg

$$$$
>  <Compound>
[2H]c1c([2H])c([2H])c(-c2c([2H])c([2H])c(C(C)C(=O)O)c([2H])c2F)c([2H])c1[2H] (configuration not stated)

>  <Vd>
0.0207 L/kg

$$$$

====

Test: Solubility in distilled water at 1 mg measured for 28 hrs by HPLC analysis
Assay type: physicochemical
Result Type: solubility at 28 h (mg/mL)

>  <Compound>
CC(C(=O)O)c1ccc(-c2ccccc2)c(F)c1 (configuration not stated)

>  <Recorded Value>
0.0241

$$$$
>  <Compound>
[2H]c1c([2H])c([2H])c(-c2c([2H])c([2H])c(C(C)C(=O)O)c([2H])c2F)c([2H])c1[2H] (configuration not stated)

>  <Recorded Value>
0.0327

$$$$

====

Assay: AUC (0 to 8 hrs) in Sprague Dawley rat at 1 mg/kg, iv measured for 8 hrs by HPLC analysis
Format: ADME, organism-based
Set-up: dose 1 mg/kg, time 8 hrs, route iv
Details: in vivo
Quick reference for AUC(0-t) at 8 h among some compounds

>  <Compound>
[2H]c1c([2H])c([2H])c(-c2c([2H])c([2H])c(C(C)C(=O)O)c([2H])c2F)c([2H])c1[2H] (configuration not stated)

>  <AUC(0-t) at 8 h>
19200 ng·h/mL

$$$$
>  <Compound>
CC(C(=O)O)c1ccc(-c2ccccc2)c(F)c1 (configuration not stated)

>  <AUC(0-t) at 8 h>
19500 ng·h/mL

$$$$

The measurements presented in this section are drawn from ChEMBL document CHEMBL5356989.
